Cited source for all entries: PubChem BioAssay (NCI)

TGI for assorted molecules
Tested on: HCT-116 colon
Assay: NCI tumour cell line growth inhibition, 48 h

[
  {
    "molecule": "COc1ccc(-c2cc3c(c4cc(OC)ccc24)C(=O)OC3=O)cc1",
    "tested_system": "HCT-116 colon",
    "TGI": "> 100 µM"
  },
  {
    "molecule": "O/N=C1/C(=C/c2ccc3c(c2)OCO3)CCCC1C(NO)c1ccc2c(c1)OCO2 (stereo not given)",
    "tested_system": "HCT-116 colon",
    "TGI": "31.9 µM"
  },
  {
    "molecule": "CS(=O)(=O)OC1CCC2(C#N)CCC1C2=O (stereo not given)",
    "tested_system": "HCT-116 colon",
    "TGI": "> 100 µM"
  },
  {
    "molecule": "Fc1ccc(Oc2nc3ccc(C(F)(F)F)cc3nc2-c2ccccc2)cc1",
    "tested_system": "HCT-116 colon",
    "TGI": "> 100 µM"
  }
]

Switching to the query record.
// sample COc1ccc(C23C(=O)c4ccccc4N2O[C@H]2C(=O)N(c4ccccc4)C(=O)[C@H]23)cc1 (stereo not given in full) , its TGI was > 100 µM
